- target-or-test-system: acetylcholinesterase (AChE) (Rattus norvegicus, UniProt P37136)
- Construct: An enzyme solution was a homogenized solution of forebrain from male Wistar rat; from tissue; host or cells: forebrain of male Wistar rat (homogenate)
- Sequence (P37136 32-614): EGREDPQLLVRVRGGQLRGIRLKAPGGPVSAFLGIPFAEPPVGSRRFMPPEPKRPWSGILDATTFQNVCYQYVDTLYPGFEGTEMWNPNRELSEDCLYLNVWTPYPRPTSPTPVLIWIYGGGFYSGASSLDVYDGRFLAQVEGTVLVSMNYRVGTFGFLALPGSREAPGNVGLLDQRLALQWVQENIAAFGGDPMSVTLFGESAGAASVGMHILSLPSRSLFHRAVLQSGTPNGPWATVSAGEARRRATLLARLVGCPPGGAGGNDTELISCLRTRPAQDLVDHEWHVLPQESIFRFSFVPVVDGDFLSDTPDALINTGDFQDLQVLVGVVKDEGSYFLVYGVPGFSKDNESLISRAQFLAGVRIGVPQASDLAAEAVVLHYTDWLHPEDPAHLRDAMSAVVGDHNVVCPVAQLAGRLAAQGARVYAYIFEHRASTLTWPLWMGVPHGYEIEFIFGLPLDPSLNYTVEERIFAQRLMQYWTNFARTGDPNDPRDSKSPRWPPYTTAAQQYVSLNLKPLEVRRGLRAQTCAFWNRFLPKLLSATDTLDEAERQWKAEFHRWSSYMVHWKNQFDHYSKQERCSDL
- assay-text: biochemical
- Parameters: species or system male Wistar rat
- measurement-parameters: homogenized forebrain of male Wistar rat, substrate acetylthiocholine, 0.1M phosphate buffer pH 8.0; read-out: Acetylcholinesterase inhibition IC₅₀
- Description: An enzyme solution was a homogenized solution of forebrain from male Wistar rat in 0.1M phosphate buffer (pH 8.0). Acetylthiocholine was used as a substrate for acetylcholinesterase (AChE) and the density of thionitrobenzoate (yellow) produced by the following reaction was measured with a spectrophotometer (OD₄₁₂). [drawing 27] Thiocholine + dithiobisnitrobenzoate → thionitrobenzoate Test compounds were dissolved in dimethylsulfoxide and diluted with 0.1M phosphate buffer (pH 8.0).
quantity-name: pIC50
Just the number, please; pIC50 means minus log10 of the concentration in mol/L.

The value of pIC50 measured for the compound `O=C(Nc1ccc2c(=O)n(CCC3CCN(Cc4ccccc4)CC3)oc2c1)c1ccccc1` turned out to be 9.14

`COc1ccc2c(CCC3CCN(Cc4ccccc4)CC3)noc2c1OC` has a reported pIC50 of 9.42
